Every entry's value here was drawn from PubChem BioAssay (NCI).

- Test system: OVCAR-4 ovarian
- Method Notes: NCI tumour cell line growth inhibition, 48 h
Known GI50 of a selection of compounds
Readout Type: GI50

Molecule: CCCCCCCCc1cc(O)ccc1O
Reported Measurement: 14.8 µM
//
Molecule: CC[C@@H](C(=O)[C@@H](C)[C@@H](O)[C@H](C)[C@@H]1O[C@@H]([C@@H](CC)C(=O)O)CC[C@@H]1C)[C@H]1O[C@]2(C=C[C@@H](O)[C@]3(CC[C@@](C)([C@H]4CC[C@](O)(CC)[C@H](C)O4)O3)O2)[C@H](C)C[C@@H]1C
Reported Measurement: 1.12 µM
//
Molecule: C[C@@H](C[C@H](CCO)c1ccccc1)c1ccc2ccccc2c1
Reported Measurement: 1.51 µM
